target: ferroportin (Fpn) (Mus musculus, UniProt Q9JHI9); construct: endogenous in cells; assay: Hepcidin Internalization Assay (J774); settings: J774 cells, TMR-hepcidin 25 nM, 2 hours; read-out: IC 50, average (AVE) of multiple measurements, hepcidin internalization assay
Sequence (Q9JHI9 whole entry): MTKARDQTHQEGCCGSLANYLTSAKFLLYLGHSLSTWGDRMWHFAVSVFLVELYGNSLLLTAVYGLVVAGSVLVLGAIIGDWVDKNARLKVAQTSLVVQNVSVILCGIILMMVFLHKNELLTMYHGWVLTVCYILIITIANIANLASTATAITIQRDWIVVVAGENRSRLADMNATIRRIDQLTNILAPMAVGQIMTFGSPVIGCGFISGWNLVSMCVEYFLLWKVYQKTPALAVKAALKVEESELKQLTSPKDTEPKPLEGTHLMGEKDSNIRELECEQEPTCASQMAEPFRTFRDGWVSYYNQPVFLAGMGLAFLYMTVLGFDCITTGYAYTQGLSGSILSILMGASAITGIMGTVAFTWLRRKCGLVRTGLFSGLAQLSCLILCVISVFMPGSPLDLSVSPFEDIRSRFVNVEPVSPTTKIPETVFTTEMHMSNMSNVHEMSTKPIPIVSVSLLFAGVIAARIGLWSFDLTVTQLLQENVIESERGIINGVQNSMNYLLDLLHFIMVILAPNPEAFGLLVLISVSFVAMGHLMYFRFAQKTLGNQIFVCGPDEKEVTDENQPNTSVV
assay-endpoint: IC50 (nM)

Past entries and their recorded results:
COc1ccc(-c2ccc3[nH]c(CCNCCc4nc(C(=O)NCc5ncccc5F)co4)nc3c2)cc1: 10
Cc1cccnc1CNC(=O)c1coc(CCNCCc2nc3c(ccc4ccccc43)[nH]2)n1: 55
O=C(NCc1ncccc1F)c1coc(CCNCCc2nc3cc(-c4ccc5c(c4)CCCC5)ccc3[nH]2)n1: 10
COCCOc1ccccc1-c1ccc2[nH]c(CCNCCc3nc(C(=O)NCc4ncccc4F)co3)nc2c1: 7
COc1cccc(-c2ccc3[nH]c(CCNCCc4nc(C(=O)NCc5ncccc5F)co4)nc3c2)c1: 8
O=C(NCc1ncccc1F)c1coc(CCNCc2nc3c(ccc4ccccc43)[nH]2)n1: 68
COc1cccnc1CNC(=O)c1coc(CCNCCc2nc3c(ccc4ccccc43)[nH]2)n1: 33
Cc1cccc(-c2ccc3[nH]c(CCNCCc4nc(C(=O)NCc5ncccc5F)co4)nc3c2)c1: 15

[A] O=C(NCc1ncccc1Cl)c1coc(CCNCCc2nc3c(ccc4ccccc43)[nH]2)n1
[B] O=C(NCc1ncccc1F)c1coc(CCNCCc2nc3cc(-c4ccccc4Cl)ccc3[nH]2)n1
[C] O=C(NCc1ncccc1C(F)(F)F)c1coc(CCNCCc2nc3c(ccc4ccccc43)[nH]2)n1
Order the records, beginning with the lowest IC50 and ending with the highest. Your answer should be the labels, listed in the requested order.
B, A, C

[I] COc1ccccc1-c1ccc2[nH]c(CCNCCc3nc(C(=O)NCc4ncccc4F)co3)nc2c1
[II] O=C(NCc1ncccc1F)c1coc(CCNCCc2nc3cc4ccccc4cc3[nH]2)n1
API: POST /compare with I and II ; response names the item with higher IC50. Answer by quoting the chosen item's label.
II

[a] O=C(NCc1ncccc1F)c1coc(CCNCCc2nc3cc(-n4cccc4)ccc3[nH]2)n1
[b] Cc1ccccc1-c1ccc2[nH]c(CCNCCc3nc(C(=O)NCc4ncccc4F)co3)nc2c1
[c] O=C(NCc1ncccc1C(F)(F)F)c1coc(CCNCCc2nc3cc(-n4cccc4)ccc3[nH]2)n1
hey, can you rank those compounds up there by IC50? biggest number first please Your answer should be the labels, listed in the requested order.
c, a, b
(c: 171 nM, a: 27 nM, b: 8 nM)

###

target: ferroportin (Fpn) (Mus musculus); construct: endogenous in cells; assay: Hepcidin Internalization Assay (J774); details: J774 cells, TMR-hepcidin 25 nM, 2 hours; read-out: IC 50, average (AVE) of multiple measurements, hepcidin internalization assay
assay-endpoint: IC50 (nM)

CN(C)C(=O)c1cccc(C#Cc2ccc3[nH]c(CCNCCc4nc(C(=O)NCc5ncccc5F)co4)nc3c2)c1 [compound 76]: 3

[P] O=C(NCc1ncccc1F)c1coc(CCNCCc2nc3cc4c(cc3[nH]2)OCO4)n1 [compound 36]
[Q] O=C(NCc1ncccc1F)c1coc(CCNCCc2nc3cc(-c4ccccc4F)ccc3[nH]2)n1 [compound 46]
Hello, I am sorting some records. Could you say if P or Q has the smaller IC50 value? Answer by quoting the chosen item's label.
Q

[I] O=C(NCc1ncccc1Cl)c1coc(CCNCCc2nc3cc(-n4cccc4)ccc3[nH]2)n1 [compound 59]
[II] O=C(NCc1nc2ccccc2c2ccccc12)c1coc(CCNCCc2nc3ccccc3[nH]2)n1 [compound 7]
[III] Cc1ccc(-c2ccc3[nH]c(CCNCCc4nc(C(=O)NCc5ncccc5F)co4)nc3c2)cc1 [compound 60]
Order the records, beginning with the lowest IC50 and ending with the highest. Your answer should be the labels, listed in the requested order.
III, I, II
(III: 13 nM, I: 28 nM, II: 1590 nM)

[a] COc1cccc(C#Cc2cccc3nc(CCNCCc4nc(C(=O)NCc5ncccc5F)co4)[nH]c23)c1 [compound 78]
[b] O=C(NCc1ncccc1F)c1coc(CCNCCc2nc3cc(-c4ccc5c(c4)OCCO5)ccc3[nH]2)n1 [compound 88]
[c] O=C(NCc1ncccc1F)c1coc(CCNCCc2nc3c(-c4ccncc4)cccc3[nH]2)n1 [compound 20]
[d] O=C(NCc1ncccc1F)c1coc(CCNCCc2nc3cc(-c4ccccc4)ccc3[nH]2)n1 [compound 19]
hey, can you rank those compounds up there by IC50? biggest number first please Your answer should be the labels, listed in the requested order.
c, a, b, d
(c: 189 nM, a: 41 nM, b: 12 nM, d: 6 nM)

[I] O=C(NCc1ncccc1F)c1coc(CCNCCc2nc3cccc(C#Cc4ccccc4)c3[nH]2)n1 [compound 37]
[II] O=C(NCc1ncccc1F)c1coc(CCNCCc2nc3cc(-c4ccc(-c5ncco5)cc4)ccc3[nH]2)n1 [compound 90]
[III] O=C(NCc1ccc2c(ccc3ccccc32)n1)c1coc(CCNCCc2nc3c(cnc4ccccc43)[nH]2)n1 [compound 12]
Order the records, beginning with the lowest IC50 and ending with the highest. Your answer should be the labels, listed in the requested order.
II, I, III
(II: 5.8 nM, I: 34 nM, III: 13900 nM)
